# Test system: MOLT-4 leukemia
# protocol-notes: NCI tumour cell line growth inhibition, 48 h
Where a SMILES comes first, the peptide text is derived from it. The star is where a group is joined. Cbz = O=C(OCc1ccccc1)*; Boc = CC(C)(C)OC(=O)*; tBu = CC(C)(C)*
Entries and their measured TGI follow.

- compound: "CCOP(=O)(CN1CCNCCNCC1)OCC"
  target-entity: "MOLT-4 leukemia"
  result: "> 100 µM"

Task item: Value lookup for TGI; key = Clc1ccccc1/C=C/c1cscn1
Reply: > 100 µM

Task item: Quick one: TGI of C=CCc1cc(-c2cc(CC=C)c(O)c(CNCCCl)c2)cc(CNCCCl)c1O ?
Reply: 53.4 µM

Task item: Fill in the blank: the reported TGI of CCCCCN(CCCCC)CC(O)c1ccc(Cl)c2ccccc12 (stereo unspecified) is ____.
Reply: 24 µM

Task item: Give the measured TGI of CCN(CC)CC(=O)O[C@]1(CC)C(=O)OCc2c1cc1n(c2=O)Cc2cc3ccccc3nc2-1 .
Reply: 0.0749 µM

Task item: Any idea what TGI was measured for COc1cc(/C=C2\CN(C)CC3=C2NC(=S)NC3c2cc(OC)c(OC)c(OC)c2)cc(OC)c1OC (stereo unspecified) ?
Reply: > 100 µM

Task item: Using the record for CCOC(=O)CN=C1NNS(=O)(=O)c2ccccc21 , report its TGI.
Reply: > 100 µM

Task item: Returns the measured TGI for the input compound. Input: CC(C)(C)C1=CC(=C(c2ccc(-c3c4nc(c(-c5ccc(C(=C6C=C(C(C)(C)C)C(=O)C(C(C)(C)C)=C6)c6cc(C(C)(C)C)c(O)c(C(C)(C)C)c6)cc5)c5ccc([nH]5)c(-c5ccc(C(=C6C=C(C(C)(C)C)C(=O)C(C(C)(C)C)=C6)c6cc(C(C)(C)C)c(O)c(C(C)(C)C)c6)cc5)c5nc(c(-c6ccc(C(=C7C=C(C(C)(C)C)C(=O)C(C(C)(C)C)=C7)c7cc(C(C)(C)C)c(O)c(C(C)(C)C)c7)cc6)c6ccc3[nH]6)C=C5)C=C4)cc2)c2cc(C(C)(C)C)c(O)c(C(C)(C)C)c2)C=C(C(C)(C)C)C1=O
Reply: > 100 µM

Task item: Query (compound): COc1cccc(/C=C2\C(=O)N(C(=O)c3ccc(NC(C)=O)cc3)N=C2C)c1 ; field requested: TGI
Reply: > 100 µM

Task item: Look up TGI for this compound: CC(OC(C)(C)C)C(NC(=O)C(CCCCNC(=O)OC(C)(C)C)NC(=O)C(Cc1c[nH]c2ccccc12)NC(=O)C(Cc1ccccc1)NC(=O)OCc1ccccc1)C(=O)NC(Cc1ccccc1)C(=O)O (stereo unspecified) (Cbz-FWK(Boc)T(tBu)F-OH; configuration not given here)
Reply: > 100 µM

Task item: What does the data say about its TGI? Entry: COc1ccc2nc3cc(Cl)ccc3c(NCCN)c2c1
Reply: 3.68 µM

Task item: Quick one: TGI of Cc1nc(-c2ccccc2)c(-c2ccccc2)s1 ?
Reply: 38.8 µM

Task item: Requested field: TGI. Item: CC(C)=CC(=O)C[C@H]1C(=O)O[C@@H]2C[C@H]3C(C)=CC(=O)[C@@H](O)[C@]3(C)[C@H]3[C@@]4(O)OC[C@]32[C@@H]1[C@@H](C)[C@H]4O
Reply: > 100 µM

Task item: Which TGI is listed for C=C1C(=O)O[C@H]2[C@H]1CC/C(COC(=O)c1cc3ccccc3s1)=C\CC[C@@]1(C)O[C@@H]21 ?
Reply: 7.69 µM

Task item: GET /values?readout=TGI&item= Nc1ncn(C2CC(O)C(CO)O2)c(=O)n1 (stereo unspecified)
Reply: > 375 µM
